Conditions: in p-xylene, 302.25 K
recorded-metric: solubility (mole fraction)

Ask: Bench note: what solubility (mole fraction) did `COc1cc(Cl)c(OC)cc1N` show?
Reply: 0.0158

* * *

Settings: in p-xylene, 294.95 K
recorded-metric: solubility (mole fraction)
Give the value as a plain number.

Ask: So what does the record say about solubility (mole fraction) for `COc1cc(Cl)c(OC)cc1N` ?
Reply: 0.0115

* * *

Details: in o-xylene, 289.15 K
recorded-metric: solubility (mole fraction)
Format: numeric value only, no unit, no commentary.

Ask: Entry `COc1cc(Cl)c(OC)cc1N` : reported solubility (mole fraction) = ?
Reply: 0.00989
